In this section we review reported activity change, negative = inhibition values for a set of compounds.
Experiment: NFAT Signaling Pathway (AID 444);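 further: carbachol stimulus at about its EC50 of 1 µM final; on the % scale 0 is the no-effect control and ±100 the full control effect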
Settings: Jurkat NFAT-bla M1, carbachol, beta-lactamase ratio, 5 h; at 7.69 µM (top of the series) unless noted
Records with an inconclusive call do not appear.
Report as a plain number; the unit % is understood.

Worked examples, 5 compounds total:
[[record]]
structure_as_smiles = "CC(C)CN=C(N)N=C(N)N"
measurement = 11.1

[[record]]
structure_as_smiles = "O=C(O)c1cc2c(cc1S(=O)(=O)O)[C@H]1[C@@H]([C@H]3[C@H]2[C@@]2(Cl)C(Cl)=C(Cl)[C@]3(Cl)C2(Cl)Cl)[C@]2(Cl)C(Cl)=C(Cl)[C@@]1(Cl)C2(Cl)Cl"
measurement = 0.12

[[record]]
structure_as_smiles = "Fc1cccc(CSc2ncnc3c2ncn3[C@H]2CCCS2)c1"
measurement = -2.58

[[record]]
structure_as_smiles = "NCC[C@H](N)C(=O)O"
measurement = 8.74

[[record]]
structure_as_smiles = "CC(=O)Nc1ccc(S(=O)(=O)N=S(C)C)cc1"
measurement = 3.98


Query string: Give recorded activity change, negative = inhibition. N=C(c1ccc2ccccc2c1)c1ccccc1Cc1ccccc1
Result string: -18

Query string: Give recorded activity change, negative = inhibition. c1ccc([C@H](CCN2CCCC2)c2ccccn2)cc1
Result string: -26.3

Query string: Give recorded activity change, negative = inhibition. Cc1ccc(S(=O)(=O)OCC(=O)O)cc1
Result string: 4.54

Query string: Give recorded activity change, negative = inhibition. CCN1CCCCC(=N/O)/C(=N/O)CCCC1
Result string: -10.8

Query string: Give recorded activity change, negative = inhibition. CC(C)(N=NC(C)(C)C1=NCCN1)C1=NCCN1
Result string: 7.08

Query string: Give recorded activity change, negative = inhibition. O=C(NNC(=O)c1ccncc1)c1ccncc1
Result string: 6.39

Query string: Give recorded activity change, negative = inhibition. O=C(O)c1ccccc1C(=O)Nc1cc2c(cc1Br)-c1ccccc1C2=O
Result string: 10.3

----------
Target: Lysosomal acid glucosylceramidase (Homo sapiens) (UniProt P04062)
Sequence (P04062 whole entry, looked up): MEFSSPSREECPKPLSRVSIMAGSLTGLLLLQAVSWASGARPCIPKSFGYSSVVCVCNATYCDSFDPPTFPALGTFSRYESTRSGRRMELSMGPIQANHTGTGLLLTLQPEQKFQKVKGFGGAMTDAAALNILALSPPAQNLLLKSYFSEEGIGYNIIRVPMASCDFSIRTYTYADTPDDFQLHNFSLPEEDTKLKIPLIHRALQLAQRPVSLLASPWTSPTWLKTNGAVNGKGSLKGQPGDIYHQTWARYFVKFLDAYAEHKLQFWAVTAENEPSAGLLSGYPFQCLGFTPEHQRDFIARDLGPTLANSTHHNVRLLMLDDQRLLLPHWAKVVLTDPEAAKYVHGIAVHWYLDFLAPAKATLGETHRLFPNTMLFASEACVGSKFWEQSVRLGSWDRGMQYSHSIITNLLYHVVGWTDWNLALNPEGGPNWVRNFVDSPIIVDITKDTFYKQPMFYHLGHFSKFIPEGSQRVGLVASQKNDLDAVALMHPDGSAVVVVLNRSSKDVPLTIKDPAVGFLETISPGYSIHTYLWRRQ
Assay: Glucocerebrosidase-p2 (AID 348); further: potency means the concentration at half of the fitted maximal effect
Details: purified GBA, blue fluorogenic substrate, 40 min
The source made the active and inactive calls. No stated cut-off is given here; in the data, active means potency below about 10 µM; inactive means the rest.
In this section we review reported Potency values for a set of compounds.

[[record]]
structure_as_smiles = "CC(=O)O[C@H]1CC[C@@]2(C)C(=CC[C@@H]3[C@@H]4CC[C@H](c5cc(C(F)(F)F)n(C(C)=O)n5)[C@]4(C)CC[C@@H]32)C1"
parameter_measured = "Potency"
measurement = "> 11.4 µM (inactive)"


Query string: Give recorded Potency. CCOC(=O)CCCN
Result string: > 11.4 µM (inactive)

Query string: Give recorded Potency. O=C(O)CCCSc1nc2ccccc2s1
Result string: > 11.4 µM (inactive)

Query string: Give recorded Potency. O=C(O)[C@H]([C@H]1NCCS1)N1C(=O)c2ccccc2C1=O
Result string: > 11.4 µM (inactive)

Query string: Give recorded Potency. Cc1cc(OCc2nc(N)nc(N)c2-c2ccc(Cl)c(Cl)c2)ccc1[N+](=O)[O-]
Result string: > 11.4 µM (inactive)

Query string: Give recorded Potency. COc1ccc(CNc2nc(-c3ccccc3OC)nc3ccccc23)c(OC)c1
Result string: > 11.4 µM (inactive)

Query string: Give recorded Potency. c1nnc(NCNc2nncs2)s1
Result string: > 11.4 µM (inactive)

Query string: Give recorded Potency. CC(C)CCNc1ncnc2[nH]ncc12
Result string: > 11.4 µM (inactive)
